Source: patent US7186722B2

method_notes: logP determination by HPLC (reversed-phase C 18), EEC Directive 79/831 Annex V.A8
Format: physicochemical
protocol_conditions: reversed-phase C18 HPLC column; pH 2.3; HPLC, 0.1% aqueous phosphoric acid/acetonitrile; 43° C.; read-out: log P (pH 2.3)
Mark true (1) only for chromatographic logP values smaller than 4; exact matches and larger values are false (0).

Field: example entries. Status: answers known.
O=C(c1c(F)cccc1F)C1CC1c1ccc(Cl)nc1 (stereo not drawn): true (1)
CC(C)(C)OC(=O)NC(CCC(=O)c1c(F)cccc1F)c1ccc(Br)s1 (stereo not drawn): false (0)
O=C(CCC(Cl)c1cc(Br)cs1)c1c(F)cccc1F (stereo not drawn): true (1)
Fc1cccc(F)c1C1=NC(c2cc(-c3ccc(OC(F)(F)F)cc3)cs2)CC1 (stereo not drawn): false (0)
Cc1ccsc1C1CCC(c2c(F)cccc2F)=N1 (stereo not drawn): true (1)
CC(C)(C)OC(=O)N1C(=O)CCC1c1cc2ccccc2s1 (stereo not drawn): true (1)
Fc1cccc(F)c1C1=NC(c2ccc(-c3cccc(OC(F)(F)F)c3)s2)CC1 (stereo not drawn): false (0)
O=C1CCC(c2sccc2Cl)N1 (stereo not drawn): true (1)
Fc1cccc(F)c1C1=NC(c2cccs2)CC1 (stereo not drawn): true (1)
CC(C)(C)OC(=O)NC(CCC(=O)c1c(F)cccc1F)c1cc2ccccc2s1 (stereo not drawn): false (0)

chromatographic logP strictly < 4 for this molecule? O=C1CCC(c2cccs2)N1 (stereo not drawn)
true (1)

chromatographic logP strictly < 4 for this molecule? Cc1ccsc1C(CCC(=O)c1c(F)cccc1F)NC(=O)OC(C)(C)C (stereo not drawn)
false (0)

chromatographic logP strictly < 4 for this molecule? Fc1cccc(F)c1C1=NC(c2ccc(-c3ccc(OC(F)(F)F)cc3)s2)CC1 (stereo not drawn)
false (0)

chromatographic logP strictly < 4 for this molecule? O=C(CCC(Cl)c1ccc(Cl)nc1)c1c(F)cccc1F (stereo not drawn)
true (1)

chromatographic logP strictly < 4 for this molecule? O=C(c1c(F)cccc1F)C1CC1c1ccc(-c2ccc(OC(F)(F)F)cc2)nc1 (stereo not drawn)
false (0)

chromatographic logP strictly < 4 for this molecule? Cc1ccsc1C1CCC(=O)N1C(=O)OC(C)(C)C (stereo not drawn)
true (1)

====

method_notes: logP determination by HPLC (reversed-phase C 18), EEC Directive 79/831 Annex V.A8
Type: physicochemical
protocol_conditions: pH 2.3; HPLC, 0.1% aqueous phosphoric acid/acetonitrile; 43° C.; read-out: log P (pH 2.3)
metric: chromatographic logP

CC(C)(C)OC(=O)NC(CCC(=O)c1c(F)cccc1F)c1cccs1 (centres unmarked): 4.48

The record that follows has no chromatographic logP shown yet.
May I ask what chromatographic logP has been recorded for CC(C)(C)OC(=O)NC(CCC(=O)c1c(F)cccc1F)c1sccc1Cl (centres unmarked) ?
4.28

====

method_notes: logP determination by HPLC (reversed-phase C 18), EEC Directive 79/831 Annex V.A8
Type: physicochemical
protocol_conditions: pH 2.3
metric: chromatographic logP
Output spec: single numeric token, no unit.

May I ask what chromatographic logP has been recorded for Fc1cccc(F)c1C1=NC(c2ccc(Cl)nc2)CC1 (stereo not shown) [Example 9] ?
1.93

====

Reported chromatographic logP values for a set of compounds
method_notes: logP determination by HPLC (reversed-phase C 18), EEC Directive 79/831 Annex V.A8
Assay type: physicochemical
protocol_conditions: reversed-phase C18 HPLC column; pH 2.3; HPLC, 0.1% aqueous phosphoric acid/acetonitrile; 43° C.; read-out: log P (pH 2.3)
Experimental: The stated logP values were determined in accordance with EEC Directive 79/831 Annex V.A8 by HPLC (High Performance Liquid Chromatography), using a reversed-phase column (C 18). Temperature: 43° C. In the acidic range, the determination was carried out at pH 2.3 using the mobile phases 0.1% aqueous phosphoric acid and acetonitrile; linear gradient from 10% acetonitrile to 90% acetonitrile. […]
Output spec: single numeric token, no unit.

// solved cases for chromatographic logP follow
Fc1cccc(F)c1C1=NC(c2cc(Br)cs2)CC1 (centres unmarked) [Example 8]: 3.41
O=C(/C=C/c1ccc(Cl)nc1)c1c(F)cccc1F [XVIII-2]: 2.87
Fc1cccc(F)c1C1=NC(c2ccc(-c3ccc(OC(F)(F)F)cc3)nc2)CC1 (centres unmarked) [Example 10]: 3.5
O=C1CCC(c2cc3ccccc3s2)N1 (centres unmarked) [XI-5]: 1.73

May I ask what chromatographic logP has been recorded for [N-]=[N+]=NC(CCC(=O)c1c(F)cccc1F)c1ccc(-c2ccc(OC(F)(F)F)cc2)nc1 (centres unmarked) [III-3] ?
4.78
